Reference for the values: ChEMBL document CHEMBL5331067

experiment: Selectivity index, ratio of CC50 for cytotoxicity against human MT4 cells assessed as reduction in cell viability to EC50 for antiviral activity against HIV-1 RES056 infected in human MT4 cells assessed as reduction in virus induced cytopathic effect; format: toxicity, cell-based; conditions: read-out: Ratio CC50/EC50
Documented selectivity ratio across a set of compounds
Reply: number alone, nothing else.

| MOLECULE | TEST VALUE |
| --- | --- |
| Cc1cc(C#N)cc(C)c1Oc1nc(NC2CCN(c3ccc(N)cc3)CC2)ncc1C(N)=O | 46 |
| Cc1cc(C#N)cc(C)c1Oc1nc(NC2CCN(c3ccc(NS(=O)(=O)N(C)C)cc3)CC2)ncc1C(N)=O | 13 |
| Cc1cc(C#N)cc(C)c1Oc1nc(NC2CCN(c3ccc(NS(=O)(=O)C4CC4)cc3)CC2)ncc1C(N)=O | 4920 |
| Cc1cc(C#N)cc(C)c1Oc1nc(NC2CCN(Cc3ccc(S(N)(=O)=O)cc3)CC2)ncc1C(N)=O | 32 |
| Cc1cc(C#N)cc(C)c1Oc1nc(Nc2ccc(C#N)cc2)ncc1C(N)=O | 4 |

**Query** I have this compound here, "Cc1cc(C#N)cc(C)c1Oc1nc(Nc2ccc(C#N)c(F)c2)ncc1C(N)=O" , and I need its recorded selectivity ratio.
**Result** 5

**Query** Using the record for "Cc1cc(C#N)cc(C)c1Oc1nc(NC2CCN(c3ccc(NS(N)(=O)=O)cc3)CC2)ncc1C(N)=O" , report its selectivity ratio.
**Result** 1

====

experiment: Cytotoxicity against human MT4 cells assessed as cell growth inhibition incubated for 5 days by MTT assay; assay type: toxicity, cell-based; settings: time 5 day
MEASURED QUANTITY: CC50 at 120 h

Answered cases to consult:
| COMPOUND | CC50 at 120 h |
| --- | --- |
| Cc1cc(C#N)cc(C)c1Oc1nc(NC2CCN(Cc3ccc(C(N)=O)cc3)CC2)ncc1C(N)=O | > 250 µM |
| Cc1cc(C#N)cc(C)c1Oc1nc(NC2CCN(c3cccc(C#N)c3)CC2)ncc1C(N)=O | 111 µM |
| Cc1ccnc2c1NC(=O)c1cccnc1N2C1CC1 [NEVIRAPINE] | > 15 µM |
| Cc1cc(C#N)cc(C)c1Oc1nc(Nc2ccc(CN3CCNCC3)cc2)ncc1C(N)=O | > 273 µM |

**Query** Need CC50 at 120 h of "Cc1cc(C#N)cc(C)c1Oc1nc(NC2CCN(c3cccc(C(N)=O)c3)CC2)ncc1C(N)=O" , thanks.
**Result** > 257 µM

====

target: Human immunodeficiency virus type 1 reverse transcriptase (Human immunodeficiency virus 1, UniProt Q72547)
List of IC50 values.

| MOLECULE | IC50 |
| --- | --- |
| Cc1cc(C#N)cc(C)c1Oc1nc(NC2CCN(Cc3ccc(S(N)(=O)=O)cc3)CC2)ncc1C(N)=O | 163 nM |
| Cc1cc(C#N)cc(C)c1Oc1nc(NC2CCN(c3ccc(NS(=O)(=O)N(C)C)cc3)CC2)ncc1C(N)=O | 52 nM |
| Cc1cc(C#N)cc(C)c1Oc1nc(NC2CCN(c3ccc(NS(N)(=O)=O)cc3)CC2)ncc1C(N)=O | 941 nM |

Now examine the next entry.
**Query** # get_value(readout='IC50', item= "Cc1cc(C#N)cc(C)c1Oc1nc(Nc2ccc(C#N)cc2)ncc1C(N)=O" )
**Result** 196 nM
